molecular target: Cdc7/Dbf4 (Homo sapiens, UniProt O00311); assay: Cdc7 biochemical assay Method 2: Cdc7/Dbf4 Enzyme TR-FRET Assay measuring pS40MCM2; conditions: pS40 MCM2 peptide, 1 μM ATP, 25° C., 120 minutes, read-out: Biochemical Method 2 (pIC50) (converted)
Sequence (O00311 whole entry): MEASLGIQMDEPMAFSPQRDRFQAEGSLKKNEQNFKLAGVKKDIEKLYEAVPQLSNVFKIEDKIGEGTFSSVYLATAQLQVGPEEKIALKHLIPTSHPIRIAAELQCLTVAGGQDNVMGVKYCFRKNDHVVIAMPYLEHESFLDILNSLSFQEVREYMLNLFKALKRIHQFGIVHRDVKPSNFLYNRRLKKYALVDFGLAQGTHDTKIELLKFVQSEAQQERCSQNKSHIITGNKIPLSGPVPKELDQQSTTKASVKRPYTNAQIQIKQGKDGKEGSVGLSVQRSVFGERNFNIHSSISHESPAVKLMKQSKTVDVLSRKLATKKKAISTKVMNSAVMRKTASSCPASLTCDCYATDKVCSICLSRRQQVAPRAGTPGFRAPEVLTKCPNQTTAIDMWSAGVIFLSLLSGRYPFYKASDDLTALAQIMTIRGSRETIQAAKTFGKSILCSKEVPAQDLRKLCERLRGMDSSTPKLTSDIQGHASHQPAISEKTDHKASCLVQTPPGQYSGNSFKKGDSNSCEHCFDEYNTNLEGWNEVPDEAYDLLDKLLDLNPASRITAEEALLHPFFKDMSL
Sequence (Q9UBU7 whole entry partner): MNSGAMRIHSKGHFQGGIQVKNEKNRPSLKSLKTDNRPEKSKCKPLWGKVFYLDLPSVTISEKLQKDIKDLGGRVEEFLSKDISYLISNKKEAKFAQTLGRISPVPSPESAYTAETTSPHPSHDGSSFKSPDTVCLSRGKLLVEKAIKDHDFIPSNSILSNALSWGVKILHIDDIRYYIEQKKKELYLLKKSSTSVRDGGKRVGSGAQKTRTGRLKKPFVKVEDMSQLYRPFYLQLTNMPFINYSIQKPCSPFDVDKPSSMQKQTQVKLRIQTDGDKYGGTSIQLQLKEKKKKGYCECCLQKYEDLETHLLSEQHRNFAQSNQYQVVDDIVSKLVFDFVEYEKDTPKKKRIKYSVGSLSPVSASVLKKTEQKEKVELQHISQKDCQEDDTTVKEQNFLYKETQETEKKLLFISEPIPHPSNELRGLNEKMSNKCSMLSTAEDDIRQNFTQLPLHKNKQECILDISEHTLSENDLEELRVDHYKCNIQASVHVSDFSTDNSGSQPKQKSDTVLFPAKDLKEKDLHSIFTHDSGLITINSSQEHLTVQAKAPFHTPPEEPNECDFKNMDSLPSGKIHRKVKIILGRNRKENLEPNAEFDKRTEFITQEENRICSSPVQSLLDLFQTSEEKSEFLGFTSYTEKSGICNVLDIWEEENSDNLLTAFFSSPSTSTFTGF
measured-endpoint: IC50 (nM)

- O=c1[nH]c(-c2cn[nH]c2C(F)(F)F)nc(C2CCOCC2)c1Cl [Compound 17]: 1.45

(I) C[C@@H]1CNCCN1c1nc(-c2cn[nH]c2Cl)[nH]c(=O)c1Cl [Compound 43]
(II) O=c1[nH]c(-c2cn[nH]c2C(F)(F)F)nc(N2CCOCC2)c1Cl [Compound 47]
(III) C[C@@H]1CNCCN1c1nc(-c2cn[nH]c2C(F)(F)F)[nH]c(=O)c1Cl [Compound 44]
(IV) Cc1[nH]ncc1-c1nc(N2CCOCC2)c(Cl)c(=O)[nH]1 [Compound 51]
query: Ranking field: IC50; order: falling. I would appreciate it if you listed the labels in the requested order.
result: IV, III, I, II
